Origin of values: PubChem BioAssay

assay: reduction of polyQ htt aggregates in cells – imaging, exon1htt(103Q)mCFP cells, high-content imaging, primary screen (AID 483); conditions: exon1htt(103Q)mCFP cell line, aggregate imaging, at 2 µM; hits give high values;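 further: compound exposure lasted 3 days before fixation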
inhibition of aggregation: recorded values
Number only, in %; omit the unit.

Reference set (8 entries):
Quickly give me recorded inhibition of aggregation for `CCCc1cn(S(=O)(=O)c2ccc(OC)cc2OC)nc1N` 7.3

Quickly give me recorded inhibition of aggregation for `CCn1c(SCC(=O)Nc2cc(C)on2)nc2sc3c(c2c1=O)CCCC3` 4

Quickly give me recorded inhibition of aggregation for `COCCn1c(CN(Cc2ccccc2)Cc2ccccc2)nc2c1c(=O)n(C)c(=O)n2C` -10.5

Quickly give me recorded inhibition of aggregation for `CC(=O)Nc1c(O)n(C)c2ccccc12` 4.1

Quickly give me recorded inhibition of aggregation for `O=C(Cc1c[nH]c2ccccc12)N1CCc2ccccc21` 6.4

Quickly give me recorded inhibition of aggregation for `COc1ccccc1C(=O)Nc1ccccc1C(=O)N1CCCC1` -2.4

Quickly give me recorded inhibition of aggregation for `CCCCn1c(SCC(=O)NCc2ccccc2)nc2ccc(N3CCOCC3)cc2c1=O` 10.3

Quickly give me recorded inhibition of aggregation for `CC(=O)N1CCC2(CC1)CC(=O)c1cc(OCC(=O)NCc3ccco3)ccc1O2` -16.2

We now examine a further compound.
Quickly give me recorded inhibition of aggregation for `Cc1cc(C)n2nc(SCC(=O)N(C)Cc3ccccc3)nc2n1` -27.8

###

molecular target: Voltage-gated potassium channel subunit beta-2 (Rattus norvegicus) (UniProt P62483); test: enhancers of rat Kvbeta2 NADPH turnover – biochemical, NADPH fluorescence, primary screen (AID 623); conditions: Recombinant KvBeta, NADPH fluorescence decrease slope, 10 min; at 10 µM; hits give low values;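 further: fluorescence intensity change per second fitted from 20 to 320 s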
Sequence (P62483 whole entry, looked up): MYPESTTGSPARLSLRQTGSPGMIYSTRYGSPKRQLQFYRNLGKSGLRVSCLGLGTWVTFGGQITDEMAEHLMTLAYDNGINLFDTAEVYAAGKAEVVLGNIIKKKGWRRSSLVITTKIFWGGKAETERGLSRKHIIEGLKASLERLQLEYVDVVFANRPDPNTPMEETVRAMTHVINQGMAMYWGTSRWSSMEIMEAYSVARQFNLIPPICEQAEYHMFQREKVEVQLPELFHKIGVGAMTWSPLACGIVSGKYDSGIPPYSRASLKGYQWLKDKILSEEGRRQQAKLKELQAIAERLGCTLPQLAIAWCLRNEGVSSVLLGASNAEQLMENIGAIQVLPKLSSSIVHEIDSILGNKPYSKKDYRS
Active and inactive are the calls of the source.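 How the source made its calls: active means NADPH fluorescence slope more negative than the mean of all samples by about 3 SD, 99.7% confidence; inactive means the rest.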
NADPH fluorescence slope: recorded values

Quickly give me recorded NADPH fluorescence slope for CSc1cccc(NC(=O)C2CCCN2S(=O)(=O)c2ccc3c(c2)CCC(=O)N3)c1 (stereo unspecified) 4.1e-06 (inactive)

Quickly give me recorded NADPH fluorescence slope for `CCCCn1c(SCC(=O)Nc2ccc(OC)cc2)nc2ccc(N3CCOCC3)cc2c1=O` 6.3e-06 (inactive)

Quickly give me recorded NADPH fluorescence slope for CCCOc1ccc(/C(O)=C2/C(=O)C(=O)N(CCCOC)C2c2ccncc2)cc1 (stereo unspecified) -6.1e-05 (inactive)

New cases:
Quickly give me recorded NADPH fluorescence slope for `O=C(OCC(=O)N1CCCC1)c1cncc(Br)c1` -2.4e-05 (inactive)

Quickly give me recorded NADPH fluorescence slope for CN(C)S(=O)(=O)c1ccc(C(=O)N2CCCC2c2nc3ccccc3s2)cc1 (stereo unspecified) 1.6e-05 (inactive)

Quickly give me recorded NADPH fluorescence slope for `CCOc1ccc2c(O)csc2c1` -4.2e-05 (inactive)

Quickly give me recorded NADPH fluorescence slope for `CCCS(=O)(=O)C(=C1Nc2ccccc2N1)S(=O)(=O)CCC` -4.3e-05 (inactive)

Quickly give me recorded NADPH fluorescence slope for O=C(NC1CCS(=O)(=O)C1)OC1CCCCC1 (stereo unspecified) -5.2e-05 (inactive)

Quickly give me recorded NADPH fluorescence slope for `COc1cccc(NC(=O)Cc2nnc(SCC(=O)c3ccccc3)n2C)c1` 1.7e-05 (inactive)

Quickly give me recorded NADPH fluorescence slope for CCC(=NC(C)c1ccccc1)c1c(O)n(C)c(=O)n(C)c1=O (stereo unspecified) -0.000132 (inactive)
